assay: JC-1 mitochondrial signal, unstimulated MM1S myeloma – cell-based, JC-1 fluorescence, 24 h, 100 nL compound, profiling panel (AID 1170); conditions: MM1S mitochondrial potential, higher = more signal; also: test concentration not given here
Each record's class is read off its z-score using these ranges: lower segment (below -1), middle segment (-1 to below -0.2), upper segment (-0.2 or more)

Look over these answered cases.
CCCN1C(=O)[C@@]2(Cc3ccccc3)N=C(c3ccc(OCCCO)cc3)O[C@H]2c2ccccc21 ... middle segment
O=C(CS)NCCCCCNC(=O)[C@@H]1C[C@@H]2C(=O)N3CCC[C@H]3C(=O)N2[C@@H]1c1ccc(O)cc1 ... upper segment
COCCOC(=O)N1C(=O)[C@@]2(c3cc(C#CC4(O)CCCCCC4)ccc31)[C@H](C(=O)N1CCc3cc(OC)c(OC)cc3C1)[C@H]1C(=O)O[C@H](c3ccccc3)[C@H](c3ccccc3)N1[C@@H]2c1ccccc1OCCO ... middle segment

Query: # bin label for C=CC[C@]1(C(=O)N2CCOCC2)N=C(c2ccc(OCCCO)cc2)O[C@H]1c1ccccc1CN=[N+]=[N-]
Reply: middle segment

Query: # bin label for COCCOC(=O)N1C(=O)[C@@]2(c3cc(C#CC4(O)CCCCCC4)ccc31)[C@H](C(=O)NC[C@H](O)c1ccccc1)[C@H]1C(=O)O[C@H](c3ccccc3)[C@H](c3ccccc3)N1[C@@H]2c1ccc(OCCO)cc1
Reply: lower segment

Query: # bin label for C=CCN1C(=O)[C@@]2(O[C@@H](CCO)[C@H]([Si](C)(C)c3ccc(OC)cc3)[C@H]2C)c2cc(NC(=O)[C@H](C)O)ccc21
Reply: lower segment

Query: # bin label for COc1cccc(C)c1NC(=O)O[C@H]1[C@H](OC(=O)Nc2ccccc2)[C@H](OC(=O)Nc2ccccc2)[C@@H](OC)O[C@@H]1CO
Reply: upper segment

Query: # bin label for COc1ccc(C(=O)Nc2ccc(CN3C(=O)[C@@]4(O[C@@H](CC(=O)N5Cc6ccccc6C[C@H]5CO)[C@H]([Si](C)(C)c5ccc(OC)cc5)[C@H]4C)c4ccccc43)cc2)cc1
Reply: lower segment

Query: # bin label for CC(C)(C)OC(=O)CC[C@]1(C(=O)O)COC(c2ccc(OCCCO)cc2)=N1
Reply: upper segment

Query: # bin label for C[N+](C)(C)CCCCCCNC(=O)[C@H]1C[C@H]2C(=O)N3CCC[C@H]3C(=O)N2[C@H]1c1cccc(OCCO)c1
Reply: upper segment

---

experiment: probe aNog binding to arrayed compounds – biochemical, biotinylated probe, 635/667 nm fluorescence, primary screen (AID 1115); conditions: small-molecule microarray, higher = more signal;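 also: probe is biotinylated aNog protein used at 0.15 µg/mL for 1 h at 4 C; z-score combines 667 nm fluorescence of each spot with its signal to noise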
Endpoint Label: composite z-score
One number for each entry.

# count of solved cases: 10
O=C(NCc1ccccc1)[C@]1(Cc2ccccc2)N=C(c2ccc(OCCCO)cc2)O[C@@H]1c1ccccc1 ... 0.044
CCOC(=O)C[C@H]1[C@H](OC(=O)Cc2ccc3c(c2)OCO3)[C@@H](NC(=O)c2ccccc2)c2cc(OCCCO)ccc2N1C(=O)c1ccccc1 ... -0.18
CC(C)[Si](C#C[Si](C(C)C)(C(C)C)C(C)C)(O[C@H](C)c1cn(Cc2cccc(Cl)c2)nn1)C(C)C ... -0.175
O=C1c2ccccc2C(=O)C2CC([C@H]3Oc4ccccc4S(=O)(=O)N4CCC[C@@H]34)=CCC12 (stereo partly drawn) ... -0.273
COC(=O)[C@@]1(Cc2ccc(OC)cc2)[C@H]2c3cc(C(=O)N4CCCC4)n(Cc4ccc(C)o4)c3C[C@H]2CN1C(=O)c1ccccc1 ... -0.504
O=C(O)[C@]1(CCS(=O)(=O)c2ccccc2)N=C(c2ccc(OCCCO)cc2)O[C@@H]1c1ccccc1 ... 1.82
CCCC=C(CCC)[C@@H](NS(=O)(=O)c1cccc2cccnc12)c1ccc(C(=O)OC)cc1 ... 3.92
CC(C)NC(=O)[C@@H]1c2ccccc2C(=O)N(Cc2cc(C(F)(F)F)cc(C(F)(F)F)c2)[C@H]1c1ccc(CO)cc1 ... 0.735
C=CCC(OC(C)=O)[C@@H]1[C@@H](N(Cc2cccc3ccccc23)C(=O)c2ccc(C)cc2)c2cc(OCCCO)ccc2N1C(=O)c1ccc2ccccc2c1 (stereo partly drawn) ... -0.329
CCCCCCC#C[Si](O[C@H](c1ccccc1)c1cn(Cc2cccc(Cl)c2)nn1)(C(C)C)C(C)C ... -0.118

Please give composite z-score for each item listed below.
1. CC(C)C(CO)N1C(=O)[C@@H]2[C@H]3C(=O)OCC=C[C@H]3OC23C=CCN(CCN2CCOCC2)C(=O)[C@@H]13 (stereo partly drawn)
2. C=C[C@@H](O)[C@H]1CC(c2ccccc2)=NO1
3. CC(C)(C)OC(=O)CC[C@@]1(C(=O)N2CCCCC2)N=C(c2ccc(OCCCO)cc2)O[C@@H]1c1ccccc1N=[N+]=[N-]

Reply:
-0.0719
-0.0524
1.92

---

test system: Sonic hedgehog protein (Shh); experiment: Sonic hedgehog microarray binding compounds – biochemical, small-molecule microarray, 635/667 nm fluorescence, primary screen (AID 1151); details: 635 nm fluorescence, higher = more signal;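 also: Shh protein binding to compounds spotted on small-molecule microarray slides; score combines spot fluorescence intensity with signal-to-noise across triplicate slides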
Endpoint Label: composite z-score
One number for each entry.

O=C1O[C@H](c2ccccc2)[C@H](c2ccccc2)N2[C@H]1[C@@H](C(=O)N1CCCCCCC1)[C@]1(C(=O)Nc3ccc(C#CCCO)cc31)[C@H]2c1ccc(OCCO)cc1 ... 2.35
COCCCNC(=O)[C@@H]1c2ccccc2C(=O)N(Cc2cc(F)cc(C(F)(F)F)c2)[C@H]1c1ccc(CO)cc1 ... -0.508
O=C1O[C@H](c2ccccc2)[C@H](c2ccccc2)N2[C@H]1[C@@H](C(=O)N1CCN(c3ncccn3)CC1)[C@]1(C(=O)Nc3ccc(C#CCCO)cc31)[C@H]2c1ccccc1OCCO ... 0.371
COC(=O)[C@@]1(Cc2ccc(F)cc2)[C@H]2c3cc(C(=O)N4CCCC4)n(Cc4ccccc4)c3C[C@H]2CN1C(=O)c1ccccc1 ... -0.447
O=C1O[C@H](c2ccccc2)[C@H](c2ccccc2)N2[C@H]1[C@@H](C(=O)N1CCCCCCC1)[C@]1(C(=O)Nc3ccccc31)[C@H]2c1ccc(O)cc1 ... 1.55
CO[C@H]1O[C@H](CO)[C@@H](OC(=O)c2ccc(Br)cc2)[C@@H]2OC(=O)[C@H](Cc3cccc(Br)c3)C/C=C/C[C@@H](Cc3cccc(Br)c3)C(=O)O[C@@H]12 ... 0.707

Please give composite z-score for each item listed below.
1. O=C1N(Cc2ccccc2)c2ccccc2[C@H]2OC(c3ccc(OCCCO)cc3)=N[C@@]12CCS(=O)(=O)c1ccccc1
2. COC(=O)[C@@]1(Cc2ccc(OC)cc2)[C@H]2c3cc(C(=O)N4CCCC4)n(CCF)c3C[C@H]2CN1C(=O)c1ccccc1
3. COc1ccc(C#Cc2ccc3c(c2)[C@]2(C(=O)N3)[C@H](c3ccc(OCCO)cc3)N3[C@H](c4ccccc4)[C@H](c4ccccc4)OC(=O)[C@H]3[C@@H]2C(=O)N2CCN(c3ncccn3)CC2)cc1

Reply:
1: 2.09; 2: -0.801; 3: 0.666

Please give composite z-score for each item listed below.
1. CC1=C2[C@@H](CCc3ccccc3)OB(O)C[C@@H]2[C@@H]2C(=O)C=CC(=O)[C@@H]2C1
2. O=C(N1CCOCC1)[C@@]1(CCS(=O)(=O)c2ccccc2)COC(c2ccc(OCCCO)cc2)=N1

Reply:
1. 1.44
2. -0.784

Please give composite z-score for each item listed below.
1. CC(C)CCC[C@@H](C)[C@H]1CC[C@@]2(C)C3=C(CC[C@]12C)[C@@]1(C)CC[C@H](OC(=O)c2ccc(N)cc2)C(C)(C)C1CC3 (stereo not given in full)
2. COc1cc2c(cc1OC)CN(C(=O)[C@@H]1[C@H]3C(=O)O[C@H](c4ccccc4)[C@H](c4ccccc4)N3[C@H](c3ccc(O)cc3)[C@@]13C(=O)Nc1ccc(C#CCNC(N)=O)cc13)CC2
3. CC(C)(C)OC(=O)CC[C@@]1(C(=O)N2CCCCC2)N=C(c2ccc(OCCCO)cc2)O[C@@H]1c1ccccc1CN=[N+]=[N-]
4. COCCCNC(=O)[C@@]1(Cc2ccccc2CN=[N+]=[N-])N=C(c2ccc(OCCCO)cc2)O[C@H]1c1ccccc1N=[N+]=[N-]

Reply:
0.49
0.946
-0.226
0.341

---

assay: probe aInhba binding on compound microarray – biochemical, small-molecule microarray, 635/667 nm fluorescence, primary screen (AID 1148); details: higher = more signal;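 also: score merges 667nm spot fluorescence with signal-to-noise for antibody binding to printed compounds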
Can you tell me composite z-score for the items I'm about to list?
One number for each entry.

# count of solved cases: 5
O=C1C2C=CC(C(O)c3ccccn3)N(Nc3ccccc3)C2C(=O)N1c1ccccc1 (stereo not drawn) ... 0.0013
CC(C)C[C@@H]1NC(=O)[C@@]23C(=O)N[C@@H](Cc4ccccc4)C2[C@H](C)[C@@]2(C)O[C@H]2C3/C=C/C/C=C\CNC(=O)[C@@H]2CCCN2C1=O (stereo partly drawn) ... 0.0051
COc1ccc([Si](C)(C)[C@@H]2[C@@H](CC(=O)N3Cc4ccccc4C[C@H]3CO)O[C@]3(C(=O)N(Cc4cccc(N5CCCCC5=O)c4)c4ccccc43)[C@H]2C)cc1 ... 0.17
O=C1OCC=C[C@H]2OC34C=CCN(CCN5CCOCC5)C(=O)[C@H]3N(CCCCCO)C(=O)[C@@H]4[C@@H]12 (stereo partly drawn) ... -0.128
COCCOC(=O)N1C(=O)[C@@]2(c3cc(C#Cc4ccc(OC)cc4)ccc31)[C@H](C(=O)N1CCc3cc(OC)c(OC)cc3C1)[C@H]1C(=O)O[C@H](c3ccccc3)[C@H](c3ccccc3)N1[C@@H]2c1ccc(OCCO)cc1 ... 0.124

Please give composite z-score for each item listed below.
1. O=C(NCc1ccccc1)[C@]1(Cc2ccccc2)N=C(c2ccc(OCCCO)cc2)O[C@@H]1c1ccccc1
2. OCCCC1=CC(c2cccs2)N(Cc2cccc(OC(F)(F)F)c2)CC1 (stereo not drawn)

Reply:
1: 0.0053; 2: -0.179

The value of composite z-score measured for the compound COc1ccc(C(=O)Nc2ccc(CN3C(=O)[C@@]4(O[C@@H](CC(=O)N5Cc6ccccc6C[C@H]5CO)[C@H]([Si](C)(C)c5ccc(OC)cc5)[C@H]4C)c4ccccc43)cc2)cc1 turned out to be -0.154
